The origin of these recorded values is ChEMBL document CHEMBL1201862.

Tested on: NCI-H23
assay-comment: NCI tumour cell line growth inhibition, 48 h
The source made the active and inactive calls. Rule as the data show it: active = GI50 up to about 1.1 µM and inactive = higher.
Please respond with reported GI50 for every item in the list.

Past entries and their recorded results:
molecule: [O-][n+]1nc(N2CCOCC2)nc2ccccc21
GI50: > 100 µM (inactive)
--
molecule: Cc1ccc2c(n1)C(=O)C=CC2=O
GI50: 15.7 µM (inactive)
--
molecule: Cc1ccc(N(C(=O)CC(=O)NN)C(=O)c2ccccc2Cl)cc1
GI50: > 100 µM (inactive)
--
molecule: O=C1c2ccccc2C2(O)N(c3ccccc3)C(=S)N(c3ccccc3)C12O (centres undefined)
GI50: > 100 µM (inactive)
--
molecule: O=C1C[C@@H](c2ccccc2)O[C@@H](c2ccccc2)C1
GI50: > 100 µM (inactive)
--
molecule: Cc1n[nH]c(N)c1C(N)=O
GI50: > 100 µM (inactive)
--
molecule: Cc1ccc(C(=O)Oc2ccccc2)cc1/N=N/N(C)C
GI50: > 58.6 µM (inactive)
--
molecule: COc1ccc(/N=C2\C(=S)N(c3ccc(OC)cc3)/C(=N/S(=O)(=O)c3ccccc3)N2c2ccccc2)cc1
GI50: 10.2 µM (inactive)

List the reported GI50 of each molecule below.
1. O=C(CNc1ccc([N+](=O)[O-])cc1)Nn1c(-c2ccccc2)nc2ccccc2c1=O
2. OC1c2ccccc2CCC1CN1CCN(CCOC(c2ccc(F)cc2)c2ccc(F)cc2)CC1 (centres undefined)
3. CC1(C)COC(c2ccc(C(F)(F)F)cc2C(O)c2ccc3ccccc3c2)=N1 (centres undefined)

1. 2.43 µM (inactive)
2. 14.5 µM (inactive)
3. 28.9 µM (inactive)

###

Test system: U-251
assay-comment: NCI tumour cell line growth inhibition, 48 h
The source made the active and inactive calls. No stated cut-off is given here; in the data, active = GI50 up to about 1.1 µM and inactive = higher.
value-type: GI50

compound: CC1(Cl)C(=O)NC(=O)N(C2CC(N=[N+]=[N-])C(CO)O2)C1N=[N+]=[N-] (stereo not drawn)
tested-target: U-251
GI50: > 100 µM (inactive)

For each entry beneath this line, provide reported GI50.
1. COC(=O)C(CC(=O)c1c[nH]c2ccccc12)c1c[nH]c2ccccc12 (stereo not drawn)
2. OCCCCCNc1nc(O)c2[nH]cnc2n1

1: 20.8 µM (inactive); 2: > 100 µM (inactive)

###

Test system: SK-OV-3
assay-comment: NCI tumour cell line growth inhibition, 48 h
The source made the active and inactive calls. No stated cut-off is given here; in the data, active = GI50 up to about 1.1 µM and inactive = higher.
// one of active, inactive, no free text

compound: COC1/C=C/C(C)C(OC)CC(O)/C=C/C(C)C(C(C)C(OC)C(C)CCC(=O)C(C)C(C/C=C/N(C)C=O)OC)OC(=O)/C=C/C=C(\C)CC(OC)CC2=CC(=O)O[C@@H](C(C)C(OC)C1)[C@H]2O (stereo partly specified)
qualitative-label: active

Call for entry `O=C1COc2ccc([N+](=O)[O-])cc2C(=O)C1` :
inactive

Please let me know the test result on file for CCN1CCC(O)(c2ccccc2)C(C(=O)c2ccccc2)C1 (stereo unspecified) .
inactive

Query: recorded result category for `CCn1c2nc(=O)n(CCCCCCCCSC(c3ccccc3)(c3ccccc3)c3ccccc3)c(=O)c-2nc2ccccc21` in this test
inactive

Hey, what did the test say about `Cc1c(NC(=O)CCCl)c(=O)oc2c(C)c3occc(=O)c3cc12` ?
inactive

Fill in: this test's call for O=C1CC(c2n[nH]c3ccccc23)C(=O)N1c1ccccc1 (stereo unspecified) is ___
inactive

For `COc1ccc2nccc(/C=C/c3ccc(N(C)C)cc3)c2c1` , which call appears in the assay record?
inactive
